Task for the reader: assign each of the following variants its reported self-cleavage.
B1: OR4K15 (parent)
chain: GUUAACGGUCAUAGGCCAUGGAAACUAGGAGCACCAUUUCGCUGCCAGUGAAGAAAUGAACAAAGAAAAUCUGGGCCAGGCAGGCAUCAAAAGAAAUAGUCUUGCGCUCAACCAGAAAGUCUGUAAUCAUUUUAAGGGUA

Variants of: B1
Test: self-cleavage, relative activity (ratio to wild type); higher = more cleavage; in vitro, sequencing; the parent is a self-cleaving ribozyme
Answers are plain numbers.

Below, each entry is followed by its recorded self-cleavage result.
chain	metricName	result
GUUAACGGUCAUAGGCCAUGGAAACCAGGAGCACCAUUUCGCUGCCAGUGAAGAAAUGAACAAAGAAAAUCUGGGCCAGGCAGGCAUCAAAAGAAAUAGUCUUGCGCUCGACCAGAAAGUCUGUAAUCAUUUUAAGGGUA [U26C A110G]	self-cleavage	0.08
GUUAACGGUCAUAGGCCAUGGAAACUAGGAGCACCAUUUCGCUGCCAGUGAAGAAAAGAACAAAGAAAAUCUGGGCCAGGCAGGCAUCAAAAGAAAUAGUCUUGCGCUCAACCAGAAAGUCUCUAAUCAUUUUAAGGGUA [U57A G123C]	self-cleavage	1.58
GUUAACGGUCAUAGGCCUUGGAAACUAGGAGCACCAUUUCGCUGCCAGUGAAGAAAUGAACAAAGAAAAUCUGGGCCAGGCAGGCAUCAAAAGAAAUAGUCUUGCGCUCAACCAGUAAGUCUGUAAUCAUUUUAAGGGUA [A18U A116U]	self-cleavage	0.15
AUUAACGGUCAUAGGCCAUGGAAACUAGGAGCACCAUUUCGCUGCCAGUGAAGAAAUGAACAAAGAAAAUCUGGGCCAGGCAGGCAUCAAAAGAAAUAGUCUUGCGCUCAACCAGAAAGUCUGUAAUCAUUUUAAGGGUA [G1A]	self-cleavage	1.55

Items follow; give self-cleavage for each.
1. GUUAACGGUCAUAGGCCAUGGAAACUAGGAGCACCAUUUCGCUGCCAGUGAAGAAAUGAGCAAAGAAAAUCUGGGCCAGGCAGGCAUCCAAAGAAAUAGUCUUGCGCUCAACCAGAAAGUCUGUAAUCAUUUUAAGGGUA [A60G A89C]
2. GUUAACGGUCAUAGGCCAUGGAAACUAGGAGCACCAUUUCGCUGCCAGUGAAGAAAUGAACAAAGAAGAUCUGGGCCAGACAGGCAUCAAAAGAAAUAGUCUUGCGCUCAACCAGAAAGUCUGUAAUCAUUUUAAGGGUA [A68G G80A]
3. GUUAACGGUCAUAGGCCAUGGGAACUAGGAGCACCAUUUCGCUGCCAGUGAAGAAAUGAACAAAGAAAAUCUGGGCCAGGCAGGCAUCAAAAGAAAUAGUCUUGCGCUCUACCAGAAAGUCUGUAAUCAUUUUAAGGGUA [A22G A110U]
4. GUUAACGGUCAUAGGCCAUGGAAACUAGGAGCACCAUUUCGCUGCCAGUGAAGAAAUGAACAAAGAAAAUCUGGGCCAGGUAGGCAUCAAAAGAAAUAGUCUAGCGCUCAACCAGAAAGUCUGUAAUCAUUUUAAGGGUA [C81U U103A]
5. GCUAACGGUCAUAGGCCAUGGAAACUAGGAGCACCAUUUCGCUGCCAGUGAAGAAAUGAACAAAGAAAAUCUGGGCCAGGCAGGCAUCAGAAGAAAUAGUCUUGCGCUCAACCAGAAAGUCUGUAAUCAUUUUAAGGGUA [U2C A90G]
6. GUUAAAGGUCAUAGGCCAUGGAAACUAGGAGCACCAUUUCGCUGCCAGUGAAGAAAUGAACAAAGAAAAUCUGGGCCAGGCAGGCAUCAAAAGAAAUAGUCUUGCGCUCGACCAGAAAGUCUGUAAUCAUUUUAAGGGUA [C6A A110G]
7. GUUAACGGUCAUAGGCCAUGGAAACUAGGAGCACCAUUUCGCUGCCAGUGAAGAAAAGAACAAAGAAAAUCUGGGCCAGGCAGGCAUCAAAAGAAAUAGUCUUGCGCUCAACCAGAAAGUCUGUAACCAUUUUAAGGGUA [U57A U127C]

[1.36, 0.21, 0.8, 0.1, 0.54, 0.08, 0.65]

Items follow; give self-cleavage for each.
1. GUUAACGGUCAUUGGCCAUGGAAACUAGGAGCACCAUUUCGCUGCCAGUGAAGAAAUGAACAAAGAACAUCUGGGCCAGGCAGGCAUCAAAAGAAAUAGUCUUGCGCUCAACCAGAAAGUCUGUAAUCAUUUUAAGGGUA [A13U A68C]
2. GUUAACGGUCAUAGGCCAUGGAAACUAGGAGCACCAUUUCGCUGCCAGUGAAGAAAUGAAUAAAGAAAAUCUGGGCCAGGCAGGCAUCAAAAGAAAUAGUCUUGCGCUCGACCAGAAAGUCUGUAAUCAUUUUAAGGGUA [C61U A110G]
3. GUUAACGGUCACAGGCCAUGGAAACUAGGAGCACCAUUUCGCUGCCAGCGAAGAAAUGAACAAAGAAAAUCUGGGCCAGGCAGGCAUCAAAAGAAAUAGUCUUGCGCUCAACCAGAAAGUCUGUAAUCAUUUUAAGGGUA [U12C U49C]
4. GUUAACGGUCAUAGGCCAUGGAAACUAGGAGCACCAUUUCGCUGCCAGUGAAGAAAUGAACAAAGAAAAUCUGGGCCAGGCAGGCAGCAAAAGAAAUAGUCUUGCGCUCAACCAGAAAGUCUGUAAUCAUUUUGAGGGUA [U87G A134G]

[1.86, 0.11, 0.44, 0.44]
